Data provenance is PubChem BioAssay AID488940.

Tgt: DNA repair nuclease/redox regulator APEX1 (Homo sapiens)
Assay Summary: Radiotracer Incision Assay (RIA) for Inhibitors of Human Apurinic/apyrimidinic Endonuclease 1 (APE1)
Assay Conditions: Recombinant APE1, radiolabeled AP-DNA incision, gel
The source made the active and inactive calls. Calls follow the shape of the full dose curve.
Reported Endpoint: Potency

- CC(=O)Nc1sc2c(c1-c1nc3ccccc3s1)CCCNC2: 7 µM (active)

// query Supply Potency value. Item: CC(=O)Nc1sc2c(c1-c1nc3ccccc3s1)CCN(C(C)C)CC2
// result 13 µM (active)

// query Supply Potency value. Item: CC(=O)Nc1sc2c(c1-c1nc3ccccc3s1)CN(C(C)C)C2
// result 4 µM (active)

// query Supply Potency value. Item: CC(=O)Nc1sc2c(c1-c1nc3ccccc3s1)CCN(C(C)=O)C2
// result 5 µM (active)

// query Supply Potency value. Item: CC(=O)Nc1sc2c(c1-c1nc3ccccc3s1)CCN(C(C)C)C2
// result 19 µM (active)
